These entries and their values trace back to patent US20210145976A1.

- SYSTEM NAME: human serum albumin (human) (UniProt P02768)
- Sequence (P02768 25-609 limits assumed): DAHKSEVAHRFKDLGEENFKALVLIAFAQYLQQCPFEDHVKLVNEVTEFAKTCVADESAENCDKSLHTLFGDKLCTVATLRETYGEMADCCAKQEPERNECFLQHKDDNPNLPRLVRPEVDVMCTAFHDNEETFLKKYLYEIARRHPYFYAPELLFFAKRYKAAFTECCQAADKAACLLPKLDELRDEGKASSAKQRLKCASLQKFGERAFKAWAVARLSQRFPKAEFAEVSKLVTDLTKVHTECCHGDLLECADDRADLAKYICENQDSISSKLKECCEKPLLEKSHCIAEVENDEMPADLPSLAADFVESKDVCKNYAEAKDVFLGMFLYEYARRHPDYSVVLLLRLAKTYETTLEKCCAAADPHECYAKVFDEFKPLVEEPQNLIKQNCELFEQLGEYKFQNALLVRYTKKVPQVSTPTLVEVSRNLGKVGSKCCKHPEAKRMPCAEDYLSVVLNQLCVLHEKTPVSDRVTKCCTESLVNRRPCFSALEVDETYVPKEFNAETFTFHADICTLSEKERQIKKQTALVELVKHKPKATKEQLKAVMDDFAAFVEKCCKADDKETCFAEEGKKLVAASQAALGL
- PROTOCOL SUMMARY: screening ELISA
Entries and their measured HSA follow.
Just the number, please, no unit after it.

>  <BINDER>
SEQ ID NO 128 (designed binder) MLPAPKNLVVSRVTEDSARLSWTAPDAAFDSFIINYIEIVQYGEAIVLTVPGSERSYDLTGLKPGTEYPESIWGVKGGGASSPLSAIFTT

>  <HSA>
3250

$$$$
>  <BINDER>
SEQ ID NO 132 (designed binder) MLPAPKNLVVSRVTEDSARLSWTAPDAAFDSFTIVYAEVTYDGEAIVLTVPGSERSYDLTGLKPGTEYDVFIEGVKGGELSWPLSAIFTT

>  <HSA>
2350

$$$$
>  <BINDER>
SEQ ID NO 291 (designed binder) MLPAPKNLVVSRVTEDSARLSWTAPDAAFDSFHIEYEEPETEGEAIYLHVPGSERSYDLTGLKPGTEYKVLIRGVKGGSYSIPLQAPFTT

>  <HSA>
2150

$$$$
>  <BINDER>
SEQ ID NO 213 (designed binder) MLPAPKNLVVSRVTEDSARLSWTAPDAAFDSFWIYYWEIERAGEAIRLDVPGSERSYDLTGLKPGTEYRVDIWGVKGGPTSGPLRATFTT

>  <HSA>
9800

$$$$
>  <BINDER>
SEQ ID NO 143 (designed binder) MLPAPKNLVVSRVTEDSARLSWTAPDAAFDSFHIAYEEADSEGEAIYLRVPGSERSYDLTGLKPGTEYSVNIQGVKGGIVSFPLHAEFTT

>  <HSA>
9250

$$$$
>  <BINDER>
SEQ ID NO 255 (designed binder) MLPAPKNLVVSRVTEDSARLSWTAPDAAFDSFDIEYYELIGRGEAIVLTVPGSERSYDLTGLKPGTEYWVGIYGVKGGWLSRPLSAIFTT

>  <HSA>
4550

$$$$
>  <BINDER>
SEQ ID NO 256 (designed binder) MLPAPKNLVVSRVTEDSARLSWTAPDAAFDSFHIVYHEPRPSGEAIVLTVPGSERSYDLTGLKPGTEYEVGIVGVKGGDLSVPLSAIFTT

>  <HSA>
2200

$$$$
>  <BINDER>
SEQ ID NO 104 (designed binder) MLPAPKNLVVSHVTEDSARLSWTAPDAAFDSFDIEYYELVGSGEAIVLTVPGSERSYDLTGLKPGTEYYVAIYGVKGGYLSRPLSAIFTT

>  <HSA>
1700

$$$$

Task: Look up and report measured HSA for this entry: SEQ ID NO 106 (designed binder) MLPAPKNLVVSRVTEDSARLSWTAPDAAFDSFTIAYEEHGLVGEAIYLRVPGSERSYDLTGLKPGTEYHVGIMGVKGGVFSSPLSAIFTT
Result: 1200

Task: Look up and report measured HSA for this entry: SEQ ID NO 294 (designed binder) MLPAPKNLVVSRVTEDSARLSWTAPDAAFDSFSIIYSEWNVTGEAIVLTVPGSERSYDLTGLKPGTEYDVWIEGVKGGGMSKPLSAISTT
Result: 8250

Task: Look up and report measured HSA for this entry: SEQ ID NO 307 (designed binder) MLPAPKNLVVSRVTEDSARLSWTAPDAAFDSFPITYSEPAHYGEAIVLTVPGSERSYDLTGLKPGTEYHVGIMGVKGGVFSSPLSAIFTT
Result: 4350

Task: Look up and report measured HSA for this entry: SEQ ID NO 145 (designed binder) MLPAPKNLVVSRVTEDSARLSWTAPDAAFDSFFIPYAEPSPTGEAIVLTVPGSERSYDLTGLKPGTEYDVWIEGVKGGTLSWPLSAIFTT
Result: 48400

Task: Look up and report measured HSA for this entry: SEQ ID NO 241 (designed binder) MLPAPKNLVVSRVTEDSARLSWTAPDAAFDSFNIYYYEWFVSGEAIVLTVPGSERSYDLTGLKPGTEYFVDIDGVKGGYRSRPLSAIFTT
Result: 2200

Task: Look up and report measured HSA for this entry: SEQ ID NO 301 (designed binder) MLPAPKNLVVSRVTEDSARLSWTAPDAAFDSFEIEYDEPYRGGEAIVLTVPGSERSYDLTSLKPGTEYPVSIGGVKGGITSDPLSAIFTT
Result: 12000

Task: Look up and report measured HSA for this entry: SEQ ID NO 93 (designed binder) MLPAPKNLVVSRVTEDSARLSWTAPDAAFDSFYIGYLEPGDNGEAIVLTVPGSERSYDLTGLKPGTEYNVSIGGVKGGLGSYPLSAIFTT
Result: 1650

Task: Look up and report measured HSA for this entry: SEQ ID NO 127 (designed binder) MLPAPKNLVVSRVTEDSARLSWTAPDAAFDSFPIPYGESPPSGEAIVLTVPGSERSYDLTGLKPGTEYVVIIRGVKGGGRSGPLSAISTT
Result: 93300

Task: Look up and report measured HSA for this entry: SEQ ID NO 114 (designed binder) MLPAPKNLVVSRVTEDSARLSWTAPDAAFDSFAIEYWEAVGSGEAIVLTVPGSERSYDLTGLKPGTEYHVYIYGVKGGYLSLPLSAIFTT
Result: 4200

Task: Look up and report measured HSA for this entry: SEQ ID NO 275 (designed binder) MLPAPKNLVVSRVTEDSARLSWTAPDAAFDSFLIAYAEVTLHGEAIVLTVPGSERSYDLTGLKPGTEYSVLIHGVKGGRNSDPLSAIFTT
Result: 3800
